Target: PI3Kβ (Homo sapiens)
Sequence (P42338 whole entry, one chain of several): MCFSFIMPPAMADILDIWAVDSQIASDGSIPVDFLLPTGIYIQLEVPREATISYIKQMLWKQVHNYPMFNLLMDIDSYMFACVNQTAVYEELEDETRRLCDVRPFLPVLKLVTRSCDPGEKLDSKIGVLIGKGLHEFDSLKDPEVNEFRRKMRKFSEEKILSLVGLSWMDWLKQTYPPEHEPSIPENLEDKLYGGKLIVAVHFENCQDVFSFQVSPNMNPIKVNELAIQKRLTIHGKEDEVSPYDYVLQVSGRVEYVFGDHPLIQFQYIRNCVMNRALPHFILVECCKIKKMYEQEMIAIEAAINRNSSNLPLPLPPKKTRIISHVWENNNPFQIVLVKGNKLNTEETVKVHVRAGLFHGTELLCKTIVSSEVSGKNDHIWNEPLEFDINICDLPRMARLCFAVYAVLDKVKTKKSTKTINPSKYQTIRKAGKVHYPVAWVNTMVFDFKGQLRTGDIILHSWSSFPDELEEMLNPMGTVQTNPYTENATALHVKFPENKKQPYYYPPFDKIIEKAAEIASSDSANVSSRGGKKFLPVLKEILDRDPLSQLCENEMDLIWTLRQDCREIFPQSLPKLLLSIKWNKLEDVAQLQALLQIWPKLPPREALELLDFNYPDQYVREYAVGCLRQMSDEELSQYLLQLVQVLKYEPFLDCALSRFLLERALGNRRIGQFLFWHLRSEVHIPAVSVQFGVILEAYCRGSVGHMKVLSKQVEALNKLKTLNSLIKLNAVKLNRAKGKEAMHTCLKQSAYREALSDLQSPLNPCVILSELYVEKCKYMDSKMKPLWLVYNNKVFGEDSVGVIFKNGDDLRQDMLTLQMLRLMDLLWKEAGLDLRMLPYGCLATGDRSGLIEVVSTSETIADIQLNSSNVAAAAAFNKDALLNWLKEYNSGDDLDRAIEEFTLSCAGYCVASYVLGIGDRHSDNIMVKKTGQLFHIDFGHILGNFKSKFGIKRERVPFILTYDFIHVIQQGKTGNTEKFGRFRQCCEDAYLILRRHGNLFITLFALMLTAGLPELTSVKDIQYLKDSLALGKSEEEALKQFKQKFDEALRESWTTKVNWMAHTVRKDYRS

molecule	IC50
CC(C)[C@H]1C(=O)N(C2CC2)C(=O)N1c1cn2c(n1)-c1ccc(N3CCC[C@H]3C(N)=O)cc1OCC2 [Compound 1]	> 600 nM

###

Target: UniProt P42336
Sequence (P42336 whole entry): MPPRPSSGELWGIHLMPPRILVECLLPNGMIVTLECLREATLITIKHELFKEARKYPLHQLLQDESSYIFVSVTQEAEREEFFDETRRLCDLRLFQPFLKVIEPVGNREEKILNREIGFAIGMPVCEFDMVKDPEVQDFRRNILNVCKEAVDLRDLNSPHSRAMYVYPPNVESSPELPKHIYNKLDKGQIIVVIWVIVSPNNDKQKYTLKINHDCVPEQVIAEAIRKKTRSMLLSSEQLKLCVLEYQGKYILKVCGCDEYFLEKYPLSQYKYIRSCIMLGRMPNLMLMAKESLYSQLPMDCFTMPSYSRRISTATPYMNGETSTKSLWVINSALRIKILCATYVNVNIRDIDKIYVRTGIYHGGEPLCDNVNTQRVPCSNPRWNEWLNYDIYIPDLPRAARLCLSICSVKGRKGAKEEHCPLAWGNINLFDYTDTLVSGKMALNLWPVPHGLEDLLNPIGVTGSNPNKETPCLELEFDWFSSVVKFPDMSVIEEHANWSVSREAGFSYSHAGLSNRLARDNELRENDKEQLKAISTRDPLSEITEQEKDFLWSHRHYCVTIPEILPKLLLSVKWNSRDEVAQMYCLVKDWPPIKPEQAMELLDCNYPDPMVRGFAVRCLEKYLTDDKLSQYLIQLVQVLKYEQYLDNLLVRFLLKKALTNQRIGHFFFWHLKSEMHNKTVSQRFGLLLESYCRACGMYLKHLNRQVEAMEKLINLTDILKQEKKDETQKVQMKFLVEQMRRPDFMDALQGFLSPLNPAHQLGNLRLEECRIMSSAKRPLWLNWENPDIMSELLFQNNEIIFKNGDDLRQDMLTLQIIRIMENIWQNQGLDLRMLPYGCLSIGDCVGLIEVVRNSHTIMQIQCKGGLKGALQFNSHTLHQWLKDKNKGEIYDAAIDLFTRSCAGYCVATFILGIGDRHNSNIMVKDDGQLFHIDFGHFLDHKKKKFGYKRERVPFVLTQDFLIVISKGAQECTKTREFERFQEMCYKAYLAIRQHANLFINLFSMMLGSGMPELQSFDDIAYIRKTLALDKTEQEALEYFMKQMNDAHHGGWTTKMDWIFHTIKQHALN
Sequence (P27986 whole entry partner): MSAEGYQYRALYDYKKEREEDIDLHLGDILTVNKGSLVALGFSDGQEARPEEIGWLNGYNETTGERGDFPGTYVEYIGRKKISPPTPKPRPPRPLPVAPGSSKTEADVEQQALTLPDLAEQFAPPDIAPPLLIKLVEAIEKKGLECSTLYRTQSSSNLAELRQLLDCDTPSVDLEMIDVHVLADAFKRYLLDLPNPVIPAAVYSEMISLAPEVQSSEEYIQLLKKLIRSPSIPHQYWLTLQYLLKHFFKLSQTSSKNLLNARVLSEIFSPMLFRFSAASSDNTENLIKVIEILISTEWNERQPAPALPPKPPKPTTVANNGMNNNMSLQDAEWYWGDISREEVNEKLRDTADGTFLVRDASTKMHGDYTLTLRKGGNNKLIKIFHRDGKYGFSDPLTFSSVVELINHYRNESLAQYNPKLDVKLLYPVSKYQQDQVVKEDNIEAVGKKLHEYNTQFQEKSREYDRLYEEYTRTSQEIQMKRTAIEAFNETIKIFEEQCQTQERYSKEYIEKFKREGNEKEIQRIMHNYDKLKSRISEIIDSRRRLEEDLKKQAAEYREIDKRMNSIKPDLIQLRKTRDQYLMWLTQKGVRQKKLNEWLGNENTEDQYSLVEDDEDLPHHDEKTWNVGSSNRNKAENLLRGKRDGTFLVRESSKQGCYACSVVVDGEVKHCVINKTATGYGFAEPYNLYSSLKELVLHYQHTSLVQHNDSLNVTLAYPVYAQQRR
pIC50: −log10 of the molar value.

chemical.string	pIC50
CC(C)[C@H]1C(=O)N(C2CC2)C(=O)N1c1cn2c(n1)-c1ccc(N3CCC[C@H]3C(N)=O)cc1OCC2	≥ 8.30

###

Assay: Pharmacokinetic assay in rats, single gavage
Assay type: in vivo
Details: rat, plasma, po, male SD rats, 10 mg/kg

molecule	Cmax
CC(C)[C@H]1C(=O)N(C2CC2)C(=O)N1c1cn2c(n1)-c1ccc(N3CCC[C@H]3C(N)=O)cc1OCC2 [Crystal Form C]	3700 ng/mL

###

Target: PI3Kγ (Homo sapiens, UniProt P48736)
Sequence (P48736 whole entry): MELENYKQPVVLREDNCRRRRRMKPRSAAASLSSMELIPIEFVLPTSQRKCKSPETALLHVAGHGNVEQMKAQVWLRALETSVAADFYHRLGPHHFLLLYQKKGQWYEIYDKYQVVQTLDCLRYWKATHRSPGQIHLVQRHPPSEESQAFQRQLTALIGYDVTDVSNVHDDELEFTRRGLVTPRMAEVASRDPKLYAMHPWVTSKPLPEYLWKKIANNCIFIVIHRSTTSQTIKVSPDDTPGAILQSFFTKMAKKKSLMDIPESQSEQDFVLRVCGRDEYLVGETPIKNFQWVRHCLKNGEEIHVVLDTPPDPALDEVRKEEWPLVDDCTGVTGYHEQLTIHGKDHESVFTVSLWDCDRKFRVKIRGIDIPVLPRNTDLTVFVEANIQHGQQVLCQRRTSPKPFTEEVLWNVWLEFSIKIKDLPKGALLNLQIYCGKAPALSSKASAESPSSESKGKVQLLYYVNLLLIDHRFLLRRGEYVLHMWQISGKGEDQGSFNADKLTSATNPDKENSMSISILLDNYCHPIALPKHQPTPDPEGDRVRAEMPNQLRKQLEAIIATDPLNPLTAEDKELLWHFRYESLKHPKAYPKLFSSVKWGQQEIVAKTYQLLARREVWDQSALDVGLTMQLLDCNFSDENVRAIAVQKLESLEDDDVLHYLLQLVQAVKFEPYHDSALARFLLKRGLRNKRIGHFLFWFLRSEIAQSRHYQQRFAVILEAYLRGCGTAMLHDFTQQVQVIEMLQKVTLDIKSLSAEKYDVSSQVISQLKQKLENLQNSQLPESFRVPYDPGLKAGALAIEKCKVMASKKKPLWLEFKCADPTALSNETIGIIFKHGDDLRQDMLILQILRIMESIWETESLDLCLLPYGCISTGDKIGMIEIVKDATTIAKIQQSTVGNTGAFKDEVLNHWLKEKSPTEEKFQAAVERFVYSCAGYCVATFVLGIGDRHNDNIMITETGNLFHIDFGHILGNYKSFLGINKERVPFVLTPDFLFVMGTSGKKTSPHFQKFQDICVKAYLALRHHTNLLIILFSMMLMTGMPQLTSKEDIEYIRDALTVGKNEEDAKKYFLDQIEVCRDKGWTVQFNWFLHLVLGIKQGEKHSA
pIC50: −log10 of the molar value.

compound	pIC50
CC(C)[C@H]1C(=O)N(C2CC2)C(=O)N1c1cn2c(n1)-c1ccc(N3CCC[C@H]3C(N)=O)cc1OCC2 [Compound 1]	< 6.22
